# measured-on: human Nectin-4 (protein used in the SPR affinity measurements) (human) (UniProt Q96NY8)
# Sequence (Q96NY8 32-349 limits assumed): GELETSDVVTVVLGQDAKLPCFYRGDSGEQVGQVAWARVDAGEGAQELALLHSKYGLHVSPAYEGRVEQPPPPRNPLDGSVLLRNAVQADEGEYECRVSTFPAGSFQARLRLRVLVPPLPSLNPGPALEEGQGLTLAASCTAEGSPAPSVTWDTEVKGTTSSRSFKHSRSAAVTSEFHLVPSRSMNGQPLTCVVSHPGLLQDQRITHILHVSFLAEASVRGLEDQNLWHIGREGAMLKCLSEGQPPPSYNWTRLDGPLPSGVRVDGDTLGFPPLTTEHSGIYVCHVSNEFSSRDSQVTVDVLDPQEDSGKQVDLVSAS
# experiment-description: SPR, human IgG1
# kon annotations
measurement-type: kon

binder: H6L3 (antibody, human IgG1, V domains shown, human IgG1 isotype) VH: QVQLVQSGAEVKKPGASVKVSCKASGYIFTSYWMHWVKQRPGQGLEWIGEIDPSDSYTNYNQKFKGRVTMTLDKSTSTTYMELSSLRSEDTAVYYCARGYGNYGDYWGQGTLVTVSS VL: DVVMTQSALSNPVTPGEPASISCRSSKSLLHSNGITYLYWYLQKPGQSPQLLIYQMSNLASGVPDRFSSSGSGTDFTLKISRVEAEDVGVYYCAQNLELPWTFGGGTKVEIK
measurement-type: kon
experimental-value: 130000 M⁻¹ s⁻¹

binder: H8L1 (antibody, human IgG1, V domains shown, human IgG1 isotype) VH: QVQLVQSGAEVKKPGASVKVSCKASGYIFTSYWMHWVKQAPGQGLEWIGEIDPSDSYTNYNQKFKGRVTMTLDKSTSTTYMELSSLRSEDTAVYYCARGYGNYGDYWGQGTLVTVSS VL: DVVMTQSPLSLPVTPGEPASISCRSSKSLLHSNGITYLYWYLQKPGQSPQLLIYQMSNLASGVPDRFSSSGSGTDFTLKISRVEAEDVGVYYCAQNLELPWTFGGGTKVEIK
measurement-type: kon
experimental-value: 250000 M⁻¹ s⁻¹
